# System: ACHN renal
# assay-details: NCI-60 one-dose screen, 48 h
# details: 10 µM unless noted
This is part of a sample that, as a whole, favours compounds with a hit. Of some 83,000 tested, about 20% had one in any assay. Calls of active or inactive are those of the source. Rule for the calls: active = growth percent below 10; inactive = the rest.
Outcome (select one): 1.0 = active, 0.0 = inactive

What is the recorded call for this compound in the test? "COc1ccc(OC)c(/C=N/Nc2ncnc3c2c(C)nn3C)c1" 0.0

What is the recorded call for this compound in the test? "N#Cc1c(-c2ccccc2)cc(-c2ccccc2)n(CCCC(=O)Nc2ccccc2N)c1=O" 0.0

What is the recorded call for this compound in the test? "COc1ccc(-c2cc(-c3cc(OC)c(OC)c(OC)c3)c(C#N)c(=O)n2CCCCC(=O)NO)cc1" 0.0

What is the recorded call for this compound in the test? "COC(=O)/C=C1/SC(=Nc2ccc(C(F)(F)F)cc2)N(CCc2c[nH]c3ccc(O)cc23)C1=O" 1.0

What is the recorded call for this compound in the test? "CC(C)(C)CC(C)(C)NC(=O)Nc1ncccc1OCc1ccccc1" 0.0

What is the recorded call for this compound in the test? "C=C1C(=O)O[C@H]2[C@H]1CC/C(COC(=O)c1cc3ccccc3s1)=C\CC[C@@]1(C)O[C@@H]21" 1.0

What is the recorded call for this compound in the test? "COc1ccc(Nc2nc(-c3cc(O)c(C)c(C)c3O)cs2)cc1" 0.0

What is the recorded call for this compound in the test? "O=S(=O)(c1ccccc1)n1cc2c(c1)-c1nc(Nc3ncccn3)sc1CC2" 0.0

What is the recorded call for this compound in the test? "O=C(CSc1nc2ccc([N+](=O)[O-])cc2[nH]1)Nc1ccc([N+](=O)[O-])cc1" 0.0

What is the recorded call for this compound in the test? "C=C(C)[C@@H]1CC[C@]2(CO)CC[C@]3(C)[C@H](CC[C@@H]4[C@@]5(C)CC[C@H](NCO)C(C)(C)[C@@H]5CC[C@]43C)[C@@H]12" 1.0

What is the recorded call for this compound in the test? "CCCc1c(OC(=O)c2ccccc2)nc2[nH]c(=O)sc2c1C" 0.0

What is the recorded call for this compound in the test? "O=S(=O)(Nc1ccc(F)cc1F)c1ccc(-c2cnc(C3CC3)o2)cc1" 0.0

What is the recorded call for this compound in the test? "CCCCCCCCCCCCCCCCCCOc1ccccc1CC(=O)OCC[N+](C)(C)C" 0.0

What is the recorded call for this compound in the test? "C=C1C(=O)O[C@H]2[C@H]1CC/C(COC(=O)NCc1ccc(Cn3c(=O)sn(CCCCC)c3=O)cc1)=C\CC[C@@]1(C)O[C@@H]21" 0.0

What is the recorded call for this compound in the test? "CCCCCCCC[C@@H]1N[C@@H](C(=O)OC)Cc2c1[nH]c1ccccc21" 0.0

What is the recorded call for this compound in the test? "N#Cc1c(-c2ccccc2)cc(-c2ccc(Nc3nc(Nc4ccc(Cl)cc4)nc(Nc4ccc(Cl)cc4)n3)cc2)nc1N" 1.0

What is the recorded call for this compound in the test? CCCCCN1C(=O)/C(=c2\sc3n(c2=O)C2C(NN=3)N(CC)C(=O)N2CC)c2ccccc21 (centres undefined) 1.0

What is the recorded call for this compound in the test? "Nc1c(C(=O)Nc2ccccc2C(F)(F)F)sc2nc3c(cc12)CCC3" 0.0

What is the recorded call for this compound in the test? "CCNCCNc1cc(-c2ccc(C(F)(F)F)cc2)c(C#N)c2nc3ccccc3n12" 1.0

What is the recorded call for this compound in the test? "COc1ccc(NC(=O)c2sc3nc(C)c(C(=O)/C=C/c4ccccc4)cc3c2N)cc1" 0.0

What is the recorded call for this compound in the test? "CC(=O)Oc1ccc(/C(=C(\C)c2ccc(Cl)cc2)c2ccc(OCCN3CCCCC3)cc2)cc1" 0.0

What is the recorded call for this compound in the test? CN(C)CCNC(=O)c1ccc(-c2nc3ccc4[nH]ncc4c3c3c2C2CCC3C2)cc1 (centres undefined) 0.0

What is the recorded call for this compound in the test? "COc1cc(OCc2cccc(Br)c2C)cc(OC)c1C=O" 0.0

What is the recorded call for this compound in the test? "Cc1ccc(Nc2cc(N)nc(N)n2)cc1Cl" 0.0

What is the recorded call for this compound in the test? "COc1ccc2c(c1OC)CO[C@@H]2[C@H]1c2c(cc3c(c2OC)OCO3)CCN1S(=O)(=O)c1cn(C)cn1" 0.0

What is the recorded call for this compound in the test? "Cn1ccnc1C(=O)/C=C/c1ccc(C(=O)Nc2ccccc2O)cc1" 0.0

What is the recorded call for this compound in the test? "COc1ccc2c(c1)CC[C@H](O)/C2=C/c1cc(OC)c(OC)c(OC)c1" 0.0

What is the recorded call for this compound in the test? CCc1ncnc2c1ccn2C(C)c1ccc(OC)c(F)c1 (centres undefined) 0.0

What is the recorded call for this compound in the test? "O=C(/C=C/c1ccccc1)Nc1ncc(Cc2ccccc2Cl)s1" 0.0

What is the recorded call for this compound in the test? Cc1nc2sc(C(=O)Nc3cccc(Br)c3)c(N)c2cc1C(O)c1ccccc1 (centres undefined) 0.0

What is the recorded call for this compound in the test? "CN(C)c1ccc(-c2c(C#N)c(N)nn2C(=O)c2ccc(NC(=O)c3ccccn3)cc2)cc1" 0.0

What is the recorded call for this compound in the test? "COc1ccc(-c2cc(-c3cccnc3)nc3sc4c(=O)[nH]c(-c5ccc(Cl)cc5)nc4c23)cc1OC" 0.0

What is the recorded call for this compound in the test? "N#C/C(=C\c1c(-c2ccccc2)[nH]c2ccccc12)C(N)=O" 0.0

What is the recorded call for this compound in the test? "O=C(NNC(=O)c1ccc(NC(=O)c2ccccn2)cc1)Nc1ccc([N+](=O)[O-])cc1" 0.0

What is the recorded call for this compound in the test? "CC1CCN(CCOc2ccc(CNc3ccc4nc(CCC5CCCCC5)[nH]c4c3)cc2)CC1" 0.0

What is the recorded call for this compound in the test? "O=C1C(=O)N(Cc2ccc(-c3ccccc3)cc2)c2ccc(OC(F)(F)F)cc21" 0.0

What is the recorded call for this compound in the test? "CCOC(=O)c1cc2c(n1Cc1cc(OC)c(OC)c(OC)c1)-c1nc(N)sc1CCC2" 0.0

What is the recorded call for this compound in the test? "O=C1c2ccccc2-c2c1c1c(=O)[nH]c3ccccc3c1n2Cc1ccccc1" 0.0

What is the recorded call for this compound in the test? "Cc1ccc(NC(=O)c2sc3nc(C)c(Br)c(C)c3c2N)cc1" 0.0
